Biological target: PICK1, Q9NRD5
Sequence (Q9NRD5 17-115): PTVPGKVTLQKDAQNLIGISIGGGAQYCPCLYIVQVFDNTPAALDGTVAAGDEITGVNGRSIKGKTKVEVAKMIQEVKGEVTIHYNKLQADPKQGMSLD
Experiment: holdup assay
Design: key: below the threshold = too weak to quantify, mostly under pKd 3.1 to 4
Conditions: plain residues with an end cap or a label only (N-terminal biotin on a linker: ttds)
readout: pKd

Use these answered entries as a reference point.
binder | pKd
SSRTRRETQL [HPV16-E6, P03126] | below the threshold
PKTPPTDTSV [KIR3DL3, Q8N743] | below the threshold
STLTIFETAL [ABCC4, O15439] | below the threshold
SVWLRKETRV [CYSLTR2, Q9NS75] | 3.42
GQDSREETQL [KCNT2, Q6UVM3] | below the threshold

Could you report pKd for every entry in the following list?
1. IYVPEAQTRL [DLGAP4, Q9Y2H0]
2. SRPQRTQTQV [HPV67-E6, A4U7F2]
3. TVASEKESVM [SLC1A5, Q15758]

below the threshold
below the threshold
below the threshold
